All figures here come from PubChem BioAssay AID504332.

target: Histone-lysine N-methyltransferase EHMT2 (Homo sapiens); experiment: qHTS Assay for Inhibitors of Histone Lysine Methyltransferase G9a; conditions: G9a H3K9 monomethylation, AlphaScreen, 2 h; series mostly up to 59 µM; also: nearly all actives have a fitted effect of over 75% in size
Hit rate of the full screen: of about 350,000 compounds, about 31,000 (8.9%) were called active. Inconclusive results (about 15%) are left out. Calls follow the shape of the dose curve; as a rule, active = well fitted inhibition curve with a large enough effect; inconclusive = small, poorly fitted or top-dose-only effect; inactive = no such curve, though single readings can be large or run the other way. This is one part of a sample in which actives are shown more often than they occur.
Hi! Could you answer with just one of these? active, inactive

Answered examples (3):
smiles.text	system.tested	qualitative.label
CCOC(=O)N1CCN(CC(=O)Nc2ccc(F)cc2)CC1	Histone-lysine N-methyltransferase EHMT2 (Homo sapiens)	inactive
CCOc1ccc(NC(=O)CN2CCN(CC(=O)Nc3ccc(OC)cc3)CC2)cc1	Histone-lysine N-methyltransferase EHMT2 (Homo sapiens)	inactive
Cc1cnc(NC(=O)c2ccc(Cl)nc2)s1	Histone-lysine N-methyltransferase EHMT2 (Homo sapiens)	inactive

Query block: Hi, sorry to bother you, what did the test record for "O=C(CN1CCN(c2ccccn2)CC1)NC1CCCCC1" ?
Result block: inactive

Query block: Test call, this molecule: "O=C(CN1CCN(c2ccccn2)CC1)Nc1ccc(Br)cc1"
Result block: inactive

Query block: Outcome logged for "CCN(CC)c1ccc(NC(=O)CN2CCN(CC(=O)Nc3ccc(Cl)cc3)CC2)cc1" in this assay:
Result block: active

----------
biological target: Histone-lysine N-methyltransferase EHMT2 (Homo sapiens) (UniProt Q96KQ7); assay: qHTS Assay for Inhibitors of Histone Lysine Methyltransferase G9a; conditions: G9a H3K9 monomethylation, AlphaScreen, 2 h; series mostly up to 59 µM; also: nearly all actives have a fitted effect of over 75% in size
Sequence (Q96KQ7 913-1193 limits assumed): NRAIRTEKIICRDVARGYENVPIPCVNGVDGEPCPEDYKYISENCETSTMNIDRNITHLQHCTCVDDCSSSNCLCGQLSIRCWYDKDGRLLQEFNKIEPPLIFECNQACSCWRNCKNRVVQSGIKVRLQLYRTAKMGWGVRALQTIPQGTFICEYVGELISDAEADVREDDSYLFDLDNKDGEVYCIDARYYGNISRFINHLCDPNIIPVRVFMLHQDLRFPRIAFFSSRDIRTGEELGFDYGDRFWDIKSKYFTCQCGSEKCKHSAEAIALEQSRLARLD
About 31,000 (8.9%) of roughly 350,000 compounds were called active. Not shown: some 15% with an inconclusive outcome. Calls follow the shape of the dose curve; as a rule, active = well fitted inhibition curve with a large enough effect; inconclusive = small, poorly fitted or top-dose-only effect; inactive = no such curve, though single readings can be large or run the other way. For the sample, actives were picked, then their nearest neighbours and some compounds at random.
# valid calls are YES for active, NO for inactive; nothing else

molecule	qualitative.label
O=C(OCN1C(=O)c2ccccc2C1=O)/C(=C\c1ccco1)NC(=O)c1ccccc1	NO
Cn1cnc([N+](=O)[O-])c1Sc1ccccc1	NO
CCCCN=C1N/C(=C\c2ccco2)C(=O)N1c1ccccc1	YES
COc1ccc(-c2nc3nc(C)cc(C)n3c2Nc2c(C)cccc2C)cc1	NO
O=C(N/N=C/c1ccoc1)c1ccc(Cl)cc1Cl	NO

Query block: Record request — test call for "CCc1cccc(C)c1Nc1c(-c2ccc(N(C)C)cc2)nc2ncccn12"
Result block: YES

Query block: What is the recorded call for this molecule in the test? "CCOC(=O)c1ccc(NC(=O)Cn2c(=O)cc(C)c3c(C)nn(-c4cccc(F)c4)c32)cc1"
Result block: NO

Query block: Test call, this molecule: "O=S(=O)(Nc1cc(S(=O)(=O)N2CCOCC2)ccc1N1CCCC1)c1cccs1"
Result block: YES

Query block: How did this test come out for "Cc1ccc(NS(=O)(=O)c2cccs2)cc1S(=O)(=O)N1CCCCCC1" ?
Result block: NO

Query block: Identify the outcome logged in this assay for the molecule shown: "CN1CCN(c2ccc(S(=O)(=O)N3CCCCC3)cc2NC(=O)Cc2ccccc2F)CC1"
Result block: NO

Query block: Could you please tell me the result logged for CCCCOC(=O)CSc1ncnc2sc3c(c12)CCC(C)C3 (stereo unspecified) in this assay?
Result block: NO

Query block: Could you check what this test reported for Cc1cccc(C(=O)Nc2ccc(S(=O)(=O)N3CCCCC3c3cccnc3)cc2)c1 (stereo unspecified) ?
Result block: NO

Query block: How did this test come out for "CC(C)c1nc(SCC(=O)Nc2cccc(C(=O)O)c2)c2c3c(sc2n1)CCCC3" ?
Result block: NO

Query block: Test call for this molecule, please: "CCN(CC)S(=O)(=O)c1ccc(N2CCN(C)CC2)c(NC(=O)Nc2ccccc2F)c1"
Result block: YES

Query block: Given "CCN(CC)S(=O)(=O)c1ccc(N2CCCC2)c(NS(=O)(=O)c2cccs2)c1" , state the outcome it received in this test.
Result block: YES

Query block: Answer briefly: the call reported for COC(=O)c1cccc(Cn2nnc3sc4c(c3c2=O)CCC(C(C)(C)C)C4)c1 (stereo unspecified) in this assay.
Result block: NO
